# assay text: amyloid nucleation score (Sup35N fusion, yeast selection) (log enrichment); library NNK3; higher = more nucleation; inactive = no reads after selection;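 note: zero at mode of non-aggregating sequences after 7 days selection at 30°C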
measured endpoint: amyloid nucleation score

- substance: "MMGIGVACYVKCGFFVYNWG"
  measured endpoint: "amyloid nucleation score"
  recorded value: "inactive"
- substance: "KCLMNFTVMRGASSCLEVPC"
  measured endpoint: "amyloid nucleation score"
  recorded value: "inactive"
- substance: "KYDVGVYLYLLLPTNCRQQW"
  measured endpoint: "amyloid nucleation score"
  recorded value: 1.46
- substance: "YYDMIMLPAKSDANRCYGCA"
  measured endpoint: "amyloid nucleation score"
  recorded value: "inactive"

Hi team, please reply with amyloid nucleation score for each item in this list.
1. RCFGKIC
2. ILHKGNS
3. TYFILKETATDLN
4. WVFVRMMVELINMTAAFAVS
5. YIARCVVTSLVLNKTCMRIY
6. IGVTPDHRSMLGRNLCLC

Result:
1: inactive; 2: inactive; 3: inactive; 4: inactive; 5: inactive; 6: inactive

----------
For each record, write down the corresponding amyloid nucleation score.
# assay text: amyloid nucleation score (Sup35N fusion, yeast selection) (log enrichment); library NNK2; higher = more nucleation; inactive = no reads after selection
Numbers only.

- substance: "RTYILYSDFGCRRCDY"
  recorded value: 3.56
- substance: "MFTVRWASFCVVINSSY"
  recorded value: 2.91
- substance: "GLERNRFGRQCLGWLLWNEA"
  recorded value: 0.065
- substance: "MCSSPRRNDKLNNGRFYSCS"
  recorded value: -1.11
- substance: "RRSWCLGFSRDLMSELKGIS"
  recorded value: 1.4

Hi team, please reply with amyloid nucleation score for each item in this list.
1. KPDTMNFWVVLALNFDLGRT
2. VGHQVDCHTSVRYYILYAFF
3. YDRKGIQCKRLAGPGQRHRS
4. FMFPGRRPFPIAMWELRFFS
5. ALGENAPILDRWLIGSLVFL

Result:
[2.77, 7.84, 0.244, -0.427, 1.77]

Hi team, please reply with amyloid nucleation score for each item in this list.
1. LWIGWSLKPKVDVRLCHWVK
2. EYTIFTDLLLYDFKWLEYVW
3. YNSVFLRNLRSVGWTKAPLW

Result:
1. 0.173
2. 0.561
3. -0.387

Hi team, please reply with amyloid nucleation score for each item in this list.
1. NGGINNSWWGLIFLNLWPTI
2. AIWGTHPQRRDIRKRERIVV

Result:
[-0.592, -0.205]

----------
# assay text: amyloid nucleation score (Sup35N fusion, yeast selection) (log enrichment); library NNK1; higher = more nucleation; inactive = no reads after selection
For each record, write down the corresponding amyloid nucleation score.
Numbers only.

Record excerpt, results attached:
- substance: "NGWPWGERSALRMG"
  recorded value: -0.573
- substance: "REPIYFSVSMIWGTLASPVT"
  recorded value: -0.447
- substance: "LAQELGR"
  recorded value: 1.68
- substance: "VDGSSCFGCAGCTTRRFTSG"
  recorded value: -0.253
- substance: "LIAPGFPERCRQGRMYEF"
  recorded value: -0.234

Hi team, please reply with amyloid nucleation score for each item in this list.
1. SSNSGYSWSFTAWMGLGMRR
2. RGYMCHCRVVSACFLYRKVQ
3. MRFKFMALGCEVLILGGFGS
4. VLVMVEFTMLEALWRCLAVG
5. DKLVYLHWPIYNVSVLCCRG
6. VSSTYNSFRFVSLGKFNHHC
7. LGRKKGFMTYSGLYYVRLWA

Result:
1: -0.037; 2: -0.044; 3: 3.72; 4: -0.297; 5: 5.14; 6: 2.71; 7: -0.81

Hi team, please reply with amyloid nucleation score for each item in this list.
1. FWNINSSFFGLTNDTLVPNF
2. GCHLVWFGVVYRQQWSFGVD
3. WVSPLVYDWYLT
4. SMSSSWG
5. AAVGALGKSRSL

Result:
0.79
0.563
-0.929
0.19
1.17

Hi team, please reply with amyloid nucleation score for each item in this list.
1. LRLRVTNVLILGSLGIDEMY
2. TFTCVITSGCDLYPLLGHIS
3. MSCYLQAFDITTTTNDASWW
4. VYTSRDGNDLEACGGYSAIV
5. VCESVNNAHAAYSAVLSVQM
6. SFIELMMASRLF
7. KHWSCRYWEEFGGMDHNLDW

Result:
2.37
0.9
-0.95
0.705
-0.347
0.367
1.1

Hi team, please reply with amyloid nucleation score for each item in this list.
1. YVLYCICV
2. TSYLLCMEQYYLKEISCRDS
3. HGTCRC

Result:
[5.95, 0.688, 0.034]

Hi team, please reply with amyloid nucleation score for each item in this list.
1. VGLNMLKNFNPDLSAKDITH
2. VWTGCVHCRRWDSGSLLNSW
3. GTNCHL
4. YAFDMRMENTQVRYHVPLII
5. GFYRGVTTIFCSVFI
6. SDTVWFPYKLITSLHQSAKW
7. AFRQVRKIVQAGTGGVQ

Result:
-0.176
-0.036
-0.036
0.292
7.78
1.41
-0.324

----------
# assay text: amyloid nucleation score (Sup35N fusion, yeast selection) (log enrichment); library NNK2; higher = more nucleation; inactive = no reads after selection
Kind request: treat -0.2 as inclusive, so amyloid nucleation score at -0.2 or higher is YES, anything lower is NO.

Example entries and their recorded answers appear below.
- substance: "IVCITTSNVLTCDIDGNITK"
  label: "YES"
- substance: "HKRHTLK"
  label: "NO"
- substance: "KHCMCYLLWNI"
  label: "NO"
- substance: "YQGMFKFRRFDNVSVVHAMR"
  label: "NO"
- substance: "CWGGISSALRQ"
  label: "YES"

Ask: Please indicate if the recorded amyloid nucleation score for FFCLIVLVANVTCCGRDEGP meets or exceeds -0.2.
Result: YES

Ask: Please indicate if the recorded amyloid nucleation score for RFFCYKSYMLLECLRIVSVC meets or exceeds -0.2.
Result: NO

Ask: Please indicate if the recorded amyloid nucleation score for LHCYFFRLMCQSYDRDYKC meets or exceeds -0.2.
Result: NO

Ask: Please indicate if the recorded amyloid nucleation score for YLNSYNSC meets or exceeds -0.2.
Result: NO

Ask: Please indicate if the recorded amyloid nucleation score for MTMGEKTLCPWNHSDLAPSR meets or exceeds -0.2.
Result: YES

Ask: Please indicate if the recorded amyloid nucleation score for MANYYLCFYFVLVMRQMKFT meets or exceeds -0.2.
Result: NO

Ask: Please indicate if the recorded amyloid nucleation score for LNICDLRPLV meets or exceeds -0.2.
Result: NO

----------
# assay text: amyloid nucleation score (Sup35N fusion, yeast selection) (log enrichment); library NNK3; higher = more nucleation; inactive = no reads after selection
measured endpoint: amyloid nucleation score

Record excerpt, results attached:
- substance: "GFFLLNSYSNCMFCKLHTGT"
  measured endpoint: "amyloid nucleation score"
  recorded value: 1.97
- substance: "AFFWCR"
  measured endpoint: "amyloid nucleation score"
  recorded value: 0.314
- substance: "LDLLHFGYFIYFDEL"
  measured endpoint: "amyloid nucleation score"
  recorded value: "inactive"
- substance: "IFNKVSLYNEMLVWVLTWSW"
  measured endpoint: "amyloid nucleation score"
  recorded value: "inactive"
- substance: "VIALVSGEYSWFRILCTPFY"
  measured endpoint: "amyloid nucleation score"
  recorded value: "inactive"
- substance: "VYDVSQVGLSRSSFFGAVQA"
  measured endpoint: "amyloid nucleation score"
  recorded value: "inactive"
- substance: "CILSVHGGILLFSIGAAFGR"
  measured endpoint: "amyloid nucleation score"
  recorded value: 0.779
- substance: "LMSNHCGKYWRHFSWIMTVF"
  measured endpoint: "amyloid nucleation score"
  recorded value: "inactive"

Hi team, please reply with amyloid nucleation score for each item in this list.
1. VTRHEFVLLLETVPISYWPH
2. IFKKLSFL
3. SYGDPCQAKGQIRIVYGWHW

Result:
["inactive", "inactive", 0.308]

Hi team, please reply with amyloid nucleation score for each item in this list.
1. FLMNDSCDRTIWFNVFLSNS
2. SDLTMIRVPIFITLRPPHSS
3. WSNTFVWLSINLSYIV
4. STTMAFAAIVFEIYSVTSWF
5. ANMKINVVLLNDCGWGR
6. SFSSRRHYNLLPFRWFFRRN

Result:
0.7
inactive
inactive
inactive
1.5
inactive

Hi team, please reply with amyloid nucleation score for each item in this list.
1. LKVVLYGVHQSCEYMRSRLS
2. FLMCWVLIVV
3. RFFAIL
4. RDRGKY
5. SSYYFFCDGLIFELLSQDNS

Result:
inactive
inactive
inactive
inactive
inactive

----------
For each record, write down the corresponding amyloid nucleation score.
# assay text: amyloid nucleation score (Sup35N fusion, yeast selection) (log enrichment); library NNK2; higher = more nucleation; inactive = no reads after selection
Answers are plain numbers.

Record excerpt, results attached:
- chain sequence: "ICFNDILQFTS"
  recorded value: -0.498
- chain sequence: "IRKCRSHSFSRFRRHFS"
  recorded value: 0.285
- chain sequence: "GWCVHSKKDGKYCRSYTRQF"
  recorded value: -0.136

Hi team, please reply with amyloid nucleation score for each item in this list.
1. AFTCYVETSIIMPNMS
2. VKQYYGSESNNGITFILRIA
3. NWLCRWWQGWNLT
4. VFFNLDSWSSKVCDSKLMVM

Result:
[-0.734, 0.177, 0.739, -0.373]

This collection of values is drawn from the supplement of paper PMC12042874.
